Reported cell viability by item:
Tested on: NOMO1
Assay: cell viability relative to DMSO control; higher = less cytotoxic
Conditions: HPLM + 10% dialyzed FBS; 48 h; 0.19 µM

| MOLECULE | cell viability |
| --- | --- |
| CCN(CCO)CCCOc1ccc2c(Nc3cc(CC(=O)Nc4cccc(F)c4)[nH]n3)ncnc2c1 | 85.7% |
| O=[N+]([O-])c1ncc[nH]1 | 97.4% |
| COc1cc2ncn(-c3cc(OCc4ccccc4[S+](C)(=O)[O-])c(C#N)s3)c2cc1OC | 108% |
| NC[C@@H]1O[C@H](O[C@H]2[C@@H](O)[C@H](O[C@@H]3[C@@H](O)[C@H](N)C[C@H](N)[C@H]3O[C@H]3O[C@H](CN)[C@@H](O)[C@H](O)[C@H]3N)O[C@@H]2CO)[C@H](N)[C@@H](O)[C@@H]1O.O=S(=O)(O)O.O=S(=O)(O)O.O=S(=O)(O)O | 110% |
| CCOc1cc2ncc(C#N)c(Nc3ccc(F)c(Cl)c3)c2cc1NC(=O)/C=C/CN(C)C | 84.9% |
| O=S(=O)([O-])CCS.[Na+] | 112% |
| O=C(CCc1ccc(O)cc1)c1c(O)cc(O)cc1O | 104% |
| Cc1c(-c2cccc3c(CCCOc4cccc5ccccc45)c(C(=O)O)n(Cc4cccnc4)c23)c(COc2ccc(N3CCN([S+](=O)([O-])N(C)C)CC3)cc2)nn1C | 86.3% |
| C[N]1C=C(C2=CC=CC=C12)\C3=C(\C(=O)NC3=O)C4=C[N](C5CCN(CC5)CC6=NC=CC=C6)C7=C4C=CC=C7 | 116% |
| O=C(CC12CC3CC(CC(C3)C1)C2)Nc1cccc2nc(NCCNCCO)ccc12 | 90.7% |
| C=C1C(=O)OC(CCCCCCCC)C1C(=O)O (stereo not drawn) | 139% |
| O=C(Nc1c[nH]nc1-c1nc2cc(CN3CCOCC3)ccc2[nH]1)NC1CC1 | 102% |
| Cc1ccc([N+](=O)[O-])cc1[S+](=O)([O-])N(C)/N=C/c1cnc2ccc(Br)cn12 | 12% |
| CC(C)=CCC/C(C)=C/CC/C(C)=C/CSc1ccccc1C(=O)O | 102% |
| CC(C)=CCC/C(C)=C/CC/C(C)=C/CC/C(C)=C/CC/C(C)=C/CC/C(C)=C/CC/C(C)=C/CC/C(C)=C/CC/C(C)=C/CO | 114% |
| COC(=O)Nc1nc2cc(C(=O)c3ccc(F)cc3)ccc2[nH]1 | 103% |
| O=C(Nc1nnc(-c2ccco2)o1)c1cc(-c2ccccc2)nc2ccccc12 | 120% |
| Cc1ccc(C(=O)Nc2cccc(C(F)(F)F)c2)cc1-c1ccc2nc(NCCN3CCOCC3)ncc2c1 | 126% |
| CCCC(C)(COC(N)=O)COC(=O)NC(C)C (stereo not drawn) | 131% |
| CC1=C(/C=C/C(C)=C/C=C/C(C)=C\C(=O)O)C(C)(C)CCC1 | 96.2% |
| CC[C@]12CC[C@H]3[C@@H](CCC/4=C/C(=O)CC[C@H]34)[C@@H]1CC[C@@]2(O)C#C | 94.4% |
| CCN1\C=C(\C(O)=O)C(=O)C2=C1N=C(N3CCNCC3)C(=C2)F | 82.2% |
| O=C(CS(=O)Cc1ccco1)NC/C=C\COc1cc(CN2CCCCC2)ccn1 (stereo not drawn) | 113% |
| CC(=O)N[C@@H]1[C@@H](NC(N)=N)\C=C(/O[C@H]1[C@H](O)[C@H](O)CO)C(O)=O | 119% |
| N[C@H]2CN(CC12CC1)c3c(F)cc4c(c3Cl)[N@@](C=C(C4=O)C(=O)O)C5C[C@H]5F (stereo partly drawn) | 89.5% |
| Cc1cc(OCCC[S+](C)(=O)[O-])cc(C)c1-c1cccc(COc2ccc3c(c2)OC[C@H]3CC(=O)O)c1 | 97.8% |
| CCOC(=O)C(C#N)C\1C2=CC(=CC=C2O\C(=C1C(=O)OCC)N)Br (stereo not drawn) | 104% |
| c1ccc2c(Cc3c[nH]c4ccccc34)c[nH]c2c1 | 112% |
